Experimental System: HuR full-length (human, UniProt Q15717 1-326)
Sequence (Q15717 whole entry): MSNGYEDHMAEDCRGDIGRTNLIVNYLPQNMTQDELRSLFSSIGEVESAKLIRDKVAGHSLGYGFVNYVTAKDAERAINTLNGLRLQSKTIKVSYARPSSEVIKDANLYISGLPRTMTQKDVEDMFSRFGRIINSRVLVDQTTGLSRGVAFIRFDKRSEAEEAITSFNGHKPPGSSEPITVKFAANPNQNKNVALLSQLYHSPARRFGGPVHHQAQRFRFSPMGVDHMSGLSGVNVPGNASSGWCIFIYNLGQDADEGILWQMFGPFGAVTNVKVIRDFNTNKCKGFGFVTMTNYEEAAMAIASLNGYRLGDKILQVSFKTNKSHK
Assay Text: competition
Property: IC50 (nM)
Respond with the bare value in nM.

Reported IC50 for GCUUUUAUUUAUUUUG (ssRNA) [Msi1 RNA unlabeled] was 17.9
